- TESTED_SYSTEM: Recombinant Human Anaplastic Lymphoma Kinase (Homo sapiens)
- Construct: purchased Invitrogen, Carlsbad, Calif
- Sequence (Q9UM73 19-1620): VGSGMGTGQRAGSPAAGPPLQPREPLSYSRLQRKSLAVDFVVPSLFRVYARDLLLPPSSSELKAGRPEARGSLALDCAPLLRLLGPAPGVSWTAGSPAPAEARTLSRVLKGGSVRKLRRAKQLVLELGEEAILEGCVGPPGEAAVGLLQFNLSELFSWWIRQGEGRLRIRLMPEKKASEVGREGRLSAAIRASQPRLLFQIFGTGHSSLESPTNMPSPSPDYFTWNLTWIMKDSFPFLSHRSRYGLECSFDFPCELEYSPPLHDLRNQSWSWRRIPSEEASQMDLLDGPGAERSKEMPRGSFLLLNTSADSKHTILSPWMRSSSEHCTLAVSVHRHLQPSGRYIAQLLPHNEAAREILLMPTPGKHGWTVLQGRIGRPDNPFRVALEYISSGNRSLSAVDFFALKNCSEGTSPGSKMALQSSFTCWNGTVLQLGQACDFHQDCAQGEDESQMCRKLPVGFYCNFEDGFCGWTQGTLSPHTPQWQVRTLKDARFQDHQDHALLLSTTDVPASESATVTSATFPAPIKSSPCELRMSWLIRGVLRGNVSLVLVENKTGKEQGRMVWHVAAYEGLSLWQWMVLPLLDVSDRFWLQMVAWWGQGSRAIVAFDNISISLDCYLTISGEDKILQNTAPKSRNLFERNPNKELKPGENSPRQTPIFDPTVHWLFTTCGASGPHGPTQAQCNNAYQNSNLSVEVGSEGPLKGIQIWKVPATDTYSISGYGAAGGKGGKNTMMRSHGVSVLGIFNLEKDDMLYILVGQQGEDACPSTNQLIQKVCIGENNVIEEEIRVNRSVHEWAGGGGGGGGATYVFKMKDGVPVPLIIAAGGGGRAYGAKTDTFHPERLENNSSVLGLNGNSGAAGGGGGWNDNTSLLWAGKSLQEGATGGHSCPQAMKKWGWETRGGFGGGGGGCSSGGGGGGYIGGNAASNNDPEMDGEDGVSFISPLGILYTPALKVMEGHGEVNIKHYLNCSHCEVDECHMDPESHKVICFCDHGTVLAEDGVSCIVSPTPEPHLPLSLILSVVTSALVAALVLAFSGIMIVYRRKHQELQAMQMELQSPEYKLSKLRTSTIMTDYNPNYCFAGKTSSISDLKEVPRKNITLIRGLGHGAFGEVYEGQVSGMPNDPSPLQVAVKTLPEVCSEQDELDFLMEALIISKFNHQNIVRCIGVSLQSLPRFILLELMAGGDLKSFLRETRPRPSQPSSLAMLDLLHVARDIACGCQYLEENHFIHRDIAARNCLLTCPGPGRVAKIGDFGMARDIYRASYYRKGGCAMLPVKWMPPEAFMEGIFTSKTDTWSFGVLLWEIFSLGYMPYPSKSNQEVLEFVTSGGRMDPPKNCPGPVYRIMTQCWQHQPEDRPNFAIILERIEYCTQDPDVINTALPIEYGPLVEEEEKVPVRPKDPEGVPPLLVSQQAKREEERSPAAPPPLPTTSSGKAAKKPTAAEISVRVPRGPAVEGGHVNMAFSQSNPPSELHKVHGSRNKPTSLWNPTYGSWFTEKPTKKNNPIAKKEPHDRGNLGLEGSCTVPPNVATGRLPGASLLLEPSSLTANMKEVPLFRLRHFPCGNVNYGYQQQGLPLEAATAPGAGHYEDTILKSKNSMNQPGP
- PROTOCOL_NOTES: ALK HTRF kinase assay
- Type: biochemical
- COND: compound at 500 nM or 1 mM; 90 μM ATP
Structures can show the parent of a compound that is named as a salt.
Assignment: determine reported ALK % of inhibition at a concentration of 500 nM or 1 mM for the given molecules.

-- ask Can you look up the measured ALK % of inhibition at a concentration of 500 nM or 1 mM of CCNC(=O)N1CCC(C(=O)Nc2ccc3cc2CCc2cccc(c2)Nc2ncc(Cl)c(n2)N3)CC1 [Example A59, trifluoroacetate] for me?
-- reply 39%

-- ask Would you mind doing O=C(CC1CCN(c2cccc(F)n2)CC1)Nc1ccc2cc1CCc1cncc(c1)Nc1ncc(Cl)c(n1)N2 [Example A181, tris(trifluoroacetate)] as well?
-- reply 42%

-- ask Would you mind doing CC(=O)N1CCN(CC(=O)Nc2ccc3cc2CCc2cncc(c2)Nc2ncc(Cl)c(n2)N3)CC1 [Example A127, tris(trifluoroacetate)] as well?
-- reply 15%

-- ask Would you mind doing Cn1cnc(S(=O)(=O)N2CCC(CC(=O)Nc3ccc4cc3CCc3cncc(c3)Nc3ncc(Cl)c(n3)N4)CC2)c1 [Example A229, bis(trifluoroacetate)] as well?
-- reply 55%

-- ask Would you mind doing Nc1nc(C(=O)N2CCC(CC(=O)Nc3ccc4cc3CCc3cncc(c3)Nc3ncc(Cl)c(n3)N4)CC2)cs1 [Example A217, tris(trifluoroacetate)] as well?
-- reply 23%

-- ask Would you mind doing Cn1cncc1C(=O)N1CCC(CC(=O)Nc2ccc3cc2CCc2cncc(c2)Nc2ncc(Cl)c(n2)N3)CC1 [Example A134, bis(trifluoroacetate)] as well?
-- reply 30%

Ref: patent US8871753B2
